B1: mRNA-splicing (parent)
chain: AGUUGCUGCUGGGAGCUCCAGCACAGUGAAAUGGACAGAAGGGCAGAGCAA

# Variants of: B1
# assay name: exon inclusion enrichment index; higher = more inclusion; WT1 exon 5 minigene, HEK293
Classify on exon inclusion enrichment index using low-valued: < 0.06; mid-valued: ≥ 0.06 and < 0.6; high-valued: ≥ 0.6

variant_annotation="G5C C6U G8C C9U U10C G26U U27C" assigned_class=high-valued
variant_annotation="G5C C6G U7C U10C A25G" assigned_class=high-valued
variant_annotation="G5C C6A U7C G8A U10A A20C G21U" assigned_class=low-valued

Into which category would you place G33U ?
low-valued

Would you mind doing G5C C6A U7C G8A U10A G15U as well?
mid-valued

Same again, this time with G2A U3A G5U G8U C9U
mid-valued

Cool, now G5C C6G U7A U10C
high-valued

Then this variant: G5C C6A U7C G8A U10A A45G G46A
mid-valued
